# System: IGROV1 ovarian
# Protocol: NCI tumour cell line growth inhibition, 48 h
*1 amine or outer side, *2 acyl side, *3 side chain or, on linkers, in order; H or OH if unused. Where a SMILES comes first, the peptide text is derived from it. [ ]: non-standard residue; d: D form. The star is where a group is joined. X31 = CC(=O)N(C)SCC(N[*:1])C(=O)[*:2]; Cbz = O=C(OCc1ccccc1)*; Bn = c1ccc(C*)cc1; For = O=C*
Measured TGI of individual entries
Quantity Kind: TGI

>  <Molecule>
N#Cc1c(-c2ccccc2)cc(-c2ccccc2)n(C2OC(CO)C(O)C(O)C2O)c1=S (stereo not drawn)

>  <Quantity Kind>
TGI

>  <Reported Value>
> 100 µM

$$$$
>  <Molecule>
O=C1C(Cl)C2(CC(/C=C/c3ccccc3Cl)=NN2c2cccc(S(=O)(=O)O)c2)N1c1nc2ccccc2s1 (stereo not drawn)

>  <Quantity Kind>
TGI

>  <Reported Value>
> 100 µM

$$$$
>  <Molecule>
Cc1cc2ccccc2n2c1nc1ccccc12

>  <Quantity Kind>
TGI

>  <Reported Value>
> 100 µM

$$$$
>  <Molecule>
COc1ccc(-c2cn(-c3cc(OC)c(OC)c(OC)c3)c(SCc3ccccc3)n2)cc1OC

>  <Quantity Kind>
TGI

>  <Reported Value>
> 100 µM

$$$$
>  <Molecule>
Cc1csc2c(=O)n(C3OC(CO)C(O)C3O)c(=O)[nH]c12 (stereo not drawn)

>  <Quantity Kind>
TGI

>  <Reported Value>
> 100 µM

$$$$
>  <Molecule>
COc1ccc(-c2nc(-c3nc4ccc(OC)cc4[nH]3)c3ccccn23)cc1

>  <Quantity Kind>
TGI

>  <Reported Value>
6.98 µM

$$$$
>  <Molecule>
CN(C)Nc1cc(=O)[nH]c(=O)[nH]1

>  <Quantity Kind>
TGI

>  <Reported Value>
> 100 µM

$$$$
>  <Molecule>
COC(=O)C(=O)C(C(=O)C(=O)Nc1ccc(F)cc1)c1nc2ccc([N+](=O)[O-])cc2[nH]c1=O (stereo not drawn)

>  <Quantity Kind>
TGI

>  <Reported Value>
> 100 µM

$$$$
>  <Molecule>
O=C1CCC2C(O)c3cc4c(cc3C(c3ccc5c(c3)OCO5)N12)OCO4 (stereo not drawn)

>  <Quantity Kind>
TGI

>  <Reported Value>
> 100 µM

$$$$
>  <Molecule>
Cn1cc2ccccc2c1-c1nc(F)nc(F)n1

>  <Quantity Kind>
TGI

>  <Reported Value>
> 100 µM

$$$$
>  <Molecule>
COc1cc(CSc2nc3ccc(C)cc3c(=O)n2-c2ccccc2)cc(OC)c1OC

>  <Quantity Kind>
TGI

>  <Reported Value>
> 100 µM

$$$$
>  <Molecule>
CCSc1[nH]c(NC(=S)NC(=O)c2ccccc2Cl)c(C(N)=O)c1C(N)=O

>  <Quantity Kind>
TGI

>  <Reported Value>
> 10 µM

$$$$
>  <Molecule>
O=C(Nc1ccc(Cl)cc1)NS(=O)(=O)c1coc2cc(F)ccc2c1=O

>  <Quantity Kind>
TGI

>  <Reported Value>
> 100 µM

$$$$
>  <Molecule>
C=C(C)C(=O)O[C@H]1CC(=C)[C@@H]2C[C@H](O)[C@](O)(CCl)[C@@H]2[C@H]2OC(=O)C(=C)[C@@H]21

>  <Quantity Kind>
TGI

>  <Reported Value>
10.4 µM

$$$$
>  <Molecule>
CCOc1ccccc1N1C(=O)C(=O)C(c2nc3ccccc3o2)C(=O)C1=O

>  <Quantity Kind>
TGI

>  <Reported Value>
> 100 µM

$$$$
>  <Molecule>
CC(=O)N(C)SCC(NC(=O)C(Cc1ccccc1)NC(=O)OCc1ccccc1)C(=O)NC(Cc1ccccc1)C(=O)NC(Cc1cn(C=O)c2ccccc12)C(=O)NC(CCCCNC(=O)OCc1ccccc1)C(=O)NC(C(=O)NC(CSN(C)C(C)=O)C(=O)NC(C(N)=O)C(C)OCc1ccccc1)C(C)OCc1ccccc1 (stereo not drawn) (Cbz-F[X31]FW(For)K(Cbz)T(Bn)[X31]T(Bn)-NH2; configuration not given here)

>  <Quantity Kind>
TGI

>  <Reported Value>
> 100 µM

$$$$
>  <Molecule>
COc1ccc(Nc2nnc(-c3nsc4ccccc34)s2)cc1

>  <Quantity Kind>
TGI

>  <Reported Value>
> 100 µM

$$$$
>  <Molecule>
CC(C)[C@H](N)C(=O)N1CCC[C@H]1B(O)O

>  <Quantity Kind>
TGI

>  <Reported Value>
> 100 µM

$$$$
